System: Salmonella enterica serovar Typhimurium SL1344
Assay Procedure: intracellular MIC (10-fold luminescence reduction); higher = less potent
Condition Notes: RAW264.7 macrophages
Where a name gives a salt, the structure may show the parent alone.
Endpoint Name: intracellular MIC

Which value of intracellular MIC has been reported for C[C@]12CC[C@@H]3c4ccc(OC(=O)c5ccccc5)cc4CC[C@H]3[C@@H]1CC[C@@H]2O [ESTRADIOL BENZOATE] in the records?
> 50 µM

Data request, read-out intracellular MIC, for O=C1OCCN1/N=C/c1ccc([N+](=O)[O-])o1 [FURAZOLIDONE]
≤ 0.78 µM

Entry CCN(CC)C(C)CN1c2ccccc2Sc2ccccc21 (stereo not given) [ETHOPROPAZINE HYDROCHLORIDE] : reported intracellular MIC = ?
≤ 0.78 µM

Quick one: intracellular MIC of Nc1ncn([C@@H]2O[C@H](CO)[C@@H](O)[C@H]2O)c(=O)n1 [AZACITIDINE] ?
≤ 0.78 µM

# input compound: O=c1[nH]cc(F)c(=O)[nH]1 [FLUOROURACIL] ; wanted: its intracellular MIC
≤ 0.78 µM

---

Exercise: for every item that follows, state its recorded intracellular MIC.
Test system: Salmonella enterica serovar Typhimurium SL1344
Assay Procedure: intracellular MIC (10-fold luminescence reduction); higher = less potent
Condition Notes: RAW264.7 macrophages
Structures can show the parent of a compound that is named as a salt.

Endpoint output: intracellular MIC of C=CC1=C(C(=O)O)N2C(=O)[C@@H](NC(=O)/C(=N\O)c3csc(N)n3)[C@H]2SC1 [CEFDINIR] . Value?
> 50 µM

So what does the record say about intracellular MIC for CN(C)[C@@H]1C(O)=C(C(N)=O)C(=O)[C@@]2(O)C(O)=C3C(=O)c4c(O)ccc(Cl)c4[C@@](C)(O)[C@H]3C[C@@H]12 [CHLORTETRACYCLINE HYDROCHLORIDE] ?
≤ 0.78 µM

Quick check: intracellular MIC of C[C@@H]1CN(c2c(F)c(N)c3c(=O)c(C(=O)O)cn(C4CC4)c3c2F)C[C@H](C)N1 [SPARFLOXACIN] ?
≤ 0.78 µM

Give its intracellular MIC value. Item: CN[C@H]1CC[C@@H](c2ccc(Cl)c(Cl)c2)c2ccccc21 [SERTRALINE HYDROCHLORIDE]
> 50 µM

Fill in: intracellular MIC of CC[C@H]1OC(=O)[C@H](C)[C@@H](O[C@H]2C[C@@](C)(OC)[C@@H](O)[C@H](C)O2)[C@H](C)[C@@H](O[C@@H]2O[C@H](C)C[C@H](N(C)C)[C@H]2O)[C@](C)(O)C[C@@H](C)C(=O)[C@H](C)[C@@H](O)[C@]1(C)O [ERYTHROMYCIN] is ___
1.56 µM

Name the reported intracellular MIC value associated with the molecule CC(=O)OC1CN2CCC1CC2 (stereo not given) [ACECLIDINE]
> 50 µM

Entry under review: CNC[C@H](O)c1cccc(O)c1 [PHENYLEPHRINE HYDROCHLORIDE] . Reported intracellular MIC?
≤ 0.78 µM

Which intracellular MIC value is on record for COc1ccc(Cc2cnc(N)nc2N)cc1OC [DIAVERIDINE] ?
1.56 µM

// intracellular MIC lookup, key: O=C(O)CN(CCN(CC(=O)O)CC(=O)O)CCN(CC(=O)O)CC(=O)O [PENTETIC ACID]
1.56 µM

Look up intracellular MIC for this molecule: Cc1cc(C2CCCCC2)n(O)c(=O)c1 [CICLOPIROX OLAMINE]
> 50 µM

Each recorded value in this set is attributed to the supplement of paper PMC6331611.
